# study.system: EPHB4 (Homo sapiens)
# Construct: Kinases are expressed as either kinase domains or full length constructs; made in house
# Sequence (P54760 16-987, species assumed): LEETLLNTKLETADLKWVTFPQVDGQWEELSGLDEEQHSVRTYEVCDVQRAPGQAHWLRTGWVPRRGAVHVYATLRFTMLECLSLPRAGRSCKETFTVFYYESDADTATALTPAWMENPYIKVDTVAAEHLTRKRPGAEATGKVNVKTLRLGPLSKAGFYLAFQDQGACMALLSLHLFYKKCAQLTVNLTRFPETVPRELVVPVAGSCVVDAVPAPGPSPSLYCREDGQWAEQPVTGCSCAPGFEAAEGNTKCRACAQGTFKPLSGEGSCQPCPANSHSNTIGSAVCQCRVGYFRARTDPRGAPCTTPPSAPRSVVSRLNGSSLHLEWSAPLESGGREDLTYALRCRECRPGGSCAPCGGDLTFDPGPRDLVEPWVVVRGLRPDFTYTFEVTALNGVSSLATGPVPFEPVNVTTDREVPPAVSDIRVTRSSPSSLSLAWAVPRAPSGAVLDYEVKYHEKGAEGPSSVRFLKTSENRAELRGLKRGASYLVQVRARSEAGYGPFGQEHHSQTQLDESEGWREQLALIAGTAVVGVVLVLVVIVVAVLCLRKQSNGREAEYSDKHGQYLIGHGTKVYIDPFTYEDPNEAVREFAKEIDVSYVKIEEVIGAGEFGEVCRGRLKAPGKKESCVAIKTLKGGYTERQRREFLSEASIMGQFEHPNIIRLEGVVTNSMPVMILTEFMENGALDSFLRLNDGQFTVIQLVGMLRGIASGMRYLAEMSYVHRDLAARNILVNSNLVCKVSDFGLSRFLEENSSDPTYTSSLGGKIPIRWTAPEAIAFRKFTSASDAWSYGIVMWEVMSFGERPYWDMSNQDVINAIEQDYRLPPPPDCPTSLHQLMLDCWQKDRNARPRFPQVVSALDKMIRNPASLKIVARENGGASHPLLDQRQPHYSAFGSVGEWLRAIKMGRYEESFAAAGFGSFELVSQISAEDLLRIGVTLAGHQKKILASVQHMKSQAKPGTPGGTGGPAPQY
# protocol.notes: Kinase inhibition assay (33P transfer), EPHB4
# Format: biochemical
# measurement.parameters: read-out: EPHB4-1
pIC50: −log10 of the molar value.
Here the recorded pIC50 is given for each entry.

Reference set, count: 3
COc1cc(Nc2ncnc(N3CCN(C)CC3)n2)cc(OC)c1OC | < 4.90
COc1cc(Nc2ncnc(Nc3ccc(Oc4ccccc4)cc3)n2)cc(OC)c1OC | < 5.00
COc1cc(Nc2ncnc(Nc3cccc(OCc4ccccc4)c3)n2)cc(OC)c1OC | < 5.01

Request the reported pIC50 associated with `COc1cc(Nc2ncnc(Nc3ccc4[nH]ncc4c3)n2)cc(OC)c1OC`
> 5.99

Same again, this time with `COc1cc(Nc2ncnc(Nc3cc(-c4ccccc4)n[nH]3)n2)cc(OC)c1OC`
> 6.02

----------
# study.system: Kdr (Homo sapiens)
# Construct: Kinases are expressed as either kinase domains or full length constructs; made in house
# Sequence (P35968 20-1356, species assumed): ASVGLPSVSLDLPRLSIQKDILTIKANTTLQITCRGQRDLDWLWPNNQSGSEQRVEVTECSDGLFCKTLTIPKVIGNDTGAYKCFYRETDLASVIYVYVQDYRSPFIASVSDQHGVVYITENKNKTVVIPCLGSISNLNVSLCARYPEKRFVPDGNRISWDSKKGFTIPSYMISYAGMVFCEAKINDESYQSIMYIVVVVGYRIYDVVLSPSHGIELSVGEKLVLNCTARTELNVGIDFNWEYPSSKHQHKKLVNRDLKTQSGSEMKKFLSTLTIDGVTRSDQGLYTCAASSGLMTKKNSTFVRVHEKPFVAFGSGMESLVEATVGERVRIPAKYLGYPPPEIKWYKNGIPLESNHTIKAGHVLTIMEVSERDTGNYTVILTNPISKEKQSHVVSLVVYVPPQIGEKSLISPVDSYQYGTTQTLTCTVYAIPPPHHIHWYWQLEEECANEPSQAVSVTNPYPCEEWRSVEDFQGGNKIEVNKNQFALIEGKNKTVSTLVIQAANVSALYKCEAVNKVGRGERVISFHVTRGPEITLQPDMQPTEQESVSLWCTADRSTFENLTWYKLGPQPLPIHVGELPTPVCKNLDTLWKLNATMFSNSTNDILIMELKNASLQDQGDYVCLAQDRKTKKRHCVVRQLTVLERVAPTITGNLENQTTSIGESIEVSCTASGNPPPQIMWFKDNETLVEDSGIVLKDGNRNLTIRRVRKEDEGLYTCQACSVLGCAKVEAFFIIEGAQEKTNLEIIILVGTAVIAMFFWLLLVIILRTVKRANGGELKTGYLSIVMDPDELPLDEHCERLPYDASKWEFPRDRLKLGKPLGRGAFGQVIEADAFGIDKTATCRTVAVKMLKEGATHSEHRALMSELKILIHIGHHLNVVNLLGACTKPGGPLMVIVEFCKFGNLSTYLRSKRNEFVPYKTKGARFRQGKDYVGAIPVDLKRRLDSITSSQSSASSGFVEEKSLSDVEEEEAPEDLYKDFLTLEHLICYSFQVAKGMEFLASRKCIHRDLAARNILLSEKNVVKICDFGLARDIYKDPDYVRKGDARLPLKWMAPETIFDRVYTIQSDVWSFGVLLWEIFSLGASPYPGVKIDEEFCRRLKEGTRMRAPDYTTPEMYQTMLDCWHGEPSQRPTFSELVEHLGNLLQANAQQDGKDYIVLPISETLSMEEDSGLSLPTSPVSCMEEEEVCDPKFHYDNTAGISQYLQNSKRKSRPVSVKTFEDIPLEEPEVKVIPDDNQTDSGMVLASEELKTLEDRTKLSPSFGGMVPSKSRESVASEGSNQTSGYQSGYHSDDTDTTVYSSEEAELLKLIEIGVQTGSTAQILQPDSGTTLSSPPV
# protocol.notes: Kinase inhibition assay (33P transfer), Kdr
# Type: biochemical
# measurement.parameters: Table 3; read-out: KDR-1
pIC50: −log10 of the molar value.
value.kind: pIC50

Reference set, count: 3
COc1cc(Nc2ncnc(Nc3ccc(F)cc3)n2)cc(OC)c1OC [Compound 303] | 5.19 to 5.97
Nc1ncnc(Nc2ccc(F)cc2F)n1 [Compound 1014] | < 4.70
O=c1[nH]c2ccccc2n1-c1ncnc(Nc2ccc(OC(F)(F)F)cc2)n1 [Compound 462] | < 4.94

Request the reported pIC50 associated with CCOC(=O)Cc1ccc(Nc2ncnc(Nc3cc(OC)c(OC)c(OC)c3)n2)cc1 [Compound 62]
5.26 to 6.04

Same again, this time with COc1cc(Nc2ncnc(-c3ccc(N(C)C)nc3)n2)cc(OC)c1OC [Compound 449]
< 4.93

Same again, this time with NC(=O)c1ccc(Nc2ncnc(-c3cccs3)n2)cc1 [Compound 354]
< 4.82

Same again, this time with COc1cc(Nc2ncnc(Nc3nccs3)n2)cc(OC)c1OC [Compound 442]
5.01 to 5.18

Same again, this time with COc1cc(Nc2ncnc(Nc3[nH]ncc3-c3ccccc3)n2)cc(OC)c1OC [Compound 369]
< 4.97

Same again, this time with COc1cc(Nc2ncnc(N(CC(=O)O)c3ccc4c(c3)OCO4)n2)cc(OC)c1OC [Compound 319]
< 5.01

Same again, this time with OCCCNc1cc(-c2ncnc(Nc3cccc(OC(F)(F)C(F)F)c3)n2)ccn1 [Compound 372]
< 4.99

Same again, this time with COc1ccc(Nc2ncnc(-n3cccc3)n2)c(OC)c1 [Compound 273]
< 4.82

Same again, this time with COc1cc(Nc2ncnc(Nc3cc(-c4cccs4)n[nH]3)n2)cc(OC)c1OC [Compound 318]
> 6.03

Same again, this time with COc1ccccc1Nc1ncnc(Nc2cc(OC)c(OC)c(OC)c2)n1 [Compound 90]
> 5.98

----------
Here the recorded pIC50 is given for each entry.
# study.system: EGFR (Homo sapiens, UniProt P00533)
# Construct: Kinases are expressed as either kinase domains or full length constructs; made in house
# Sequence (P00533 25-1210, species assumed): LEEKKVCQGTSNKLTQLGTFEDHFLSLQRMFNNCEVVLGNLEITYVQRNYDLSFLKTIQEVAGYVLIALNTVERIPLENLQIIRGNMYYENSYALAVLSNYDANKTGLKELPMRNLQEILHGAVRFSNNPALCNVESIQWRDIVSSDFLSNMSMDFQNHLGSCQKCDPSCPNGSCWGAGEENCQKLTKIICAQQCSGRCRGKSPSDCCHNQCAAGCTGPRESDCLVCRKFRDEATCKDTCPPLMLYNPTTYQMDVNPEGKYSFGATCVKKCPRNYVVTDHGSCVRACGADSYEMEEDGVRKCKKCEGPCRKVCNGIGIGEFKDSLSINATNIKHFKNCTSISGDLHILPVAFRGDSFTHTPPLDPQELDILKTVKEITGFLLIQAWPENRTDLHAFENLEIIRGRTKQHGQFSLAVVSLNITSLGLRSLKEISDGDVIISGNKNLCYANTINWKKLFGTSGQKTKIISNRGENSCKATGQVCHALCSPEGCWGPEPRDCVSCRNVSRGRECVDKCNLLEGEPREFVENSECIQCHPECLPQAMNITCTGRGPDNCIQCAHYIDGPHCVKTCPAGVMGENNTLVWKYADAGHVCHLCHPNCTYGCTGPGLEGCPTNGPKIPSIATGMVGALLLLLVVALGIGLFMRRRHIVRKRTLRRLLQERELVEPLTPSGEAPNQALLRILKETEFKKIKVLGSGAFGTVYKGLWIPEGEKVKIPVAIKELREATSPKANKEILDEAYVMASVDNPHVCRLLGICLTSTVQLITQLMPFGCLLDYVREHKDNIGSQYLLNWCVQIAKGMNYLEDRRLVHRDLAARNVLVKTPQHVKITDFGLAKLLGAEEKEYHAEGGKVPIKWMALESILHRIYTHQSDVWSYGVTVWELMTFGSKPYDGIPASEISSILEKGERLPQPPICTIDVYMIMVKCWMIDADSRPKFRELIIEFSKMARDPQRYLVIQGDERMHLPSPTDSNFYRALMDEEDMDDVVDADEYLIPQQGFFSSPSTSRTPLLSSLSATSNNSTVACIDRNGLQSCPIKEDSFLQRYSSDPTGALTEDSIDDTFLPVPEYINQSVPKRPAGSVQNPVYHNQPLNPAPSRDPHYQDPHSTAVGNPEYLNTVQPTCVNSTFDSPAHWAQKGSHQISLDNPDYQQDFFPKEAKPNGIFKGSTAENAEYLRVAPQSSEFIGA
# protocol.notes: Kinase inhibition assay (33P transfer), EGFR
# Type: biochemical
# measurement.parameters: Table 2, class symbols A-E; read-out: EGFR-1
pIC50: −log10 of the molar value.

Reference set, count: 8
COC(=O)c1ccc(-c2cc(Nc3ncnc(Nc4ccc(N5CCOCC5)cc4)n3)[nH]n2)cc1 | 5.02 to 5.13
c1ccc(-c2cc(Nc3ncnc(Nc4cccc(-c5cnco5)c4)n3)[nH]n2)cc1 | 5.22 to 6.00
CN(c1cccc(Br)c1)c1ncnc(Nc2cccc(Cc3nnn[nH]3)c2)n1 | > 6.04
COc1ccc(Nc2ncnc(N(C)c3ccc(S(=O)(=O)O)cc3)n2)cc1OC | < 4.97
O=C(O)CCNC(=O)c1ccc(Nc2ncnc(Nc3cc(-c4ccco4)[nH]n3)n2)cc1 | 5.26 to 6.04
Clc1cc(Nc2ncnc(Nc3ccc4c(cnn4Cc4ccccc4)c3)n2)cc(Cl)c1Cl | 5.32 to 6.09
COc1cc(Nc2ncnc(-c3cccnc3Nc3ccc(Cl)cc3C)n2)cc(OC)c1OC | < 5.03
COc1cc(Nc2ncnc(-c3cccnc3NCc3cccc4ccccc34)n2)cc(OC)c1OC | < 5.04

Below: the item to evaluate.
Request the reported pIC50 associated with `CCOc1cccc(Nc2ncnc(Nc3cc(-c4ccc(C(=O)OC)cc4)n[nH]3)n2)c1`
< 4.98
